From: a melting point compilation (Tetko et al.; mined from patent text by program, amines drawn as free bases though some values may be those of a salt)

Measured Property: melting point

See these solved cases before continuing.
> print(dat)
                                   compound  measured.property  reported.result
1           COc1cc2ncnc(N3CCC(N)CC3)c2cc1OC      melting point    133 to 135 °C
2  O=C(CCCc1cccs1)NC(Cc1ccc(C(F)(F)F)cc1)C(=O)c1ccc(F)cc1 (stereo not given)      melting point    123 to 124 °C
3   CC(C)(C)NS(=O)(=O)c1ccccc1CCOS(C)(=O)=O      melting point    106 to 108 °C

Lookup: State the recorded melting point for this entry: `Fc1cc2c(Nc3ccc(Cl)c(Cl)c3)ncnc2cn1`
Found: 262 to 264 °C

Lookup: Consider the compound `CCOC(=O)c1ncc2[nH]c3ccc(Oc4ccc(Br)cn4)cc3c2c1COC` and give its measured melting point.
Found: 210 to 212 °C

---

Measured Property: melting point

Reference set, count: 2
> print(dat)
                                   compound  reported.result
1         Cc1ccc(C(Cl)=NOS(=O)(=O)CCCCl)cc1      56 to 58 °C
2  CC(C)OC(=O)C=Cc1cc(N2C(=O)CC(C(F)(F)F)N(C)C2=O)ccc1Cl (stereo not drawn)    200 to 202 °C

Now let's try a different one.
Lookup: Given the entry CC(C)(C)C(NC(=O)Cc1ccc(Cl)cc1)NC(=NC#N)c1cccc2ncccc12 (stereo not drawn) , report its measured melting point.
Found: 218 to 220 °C

---

Measured Property: melting point

> print(dat)
                                   compound  measured.property  reported.result
1  COc1ccc2cc([C@H](C)C(=O)OCC(=O)N(C)CC(=O)OCCCO[N+](=O)[O-])ccc2c1      melting point      41 to 43 °C
2     CCOC(=O)C(=CN)C(=O)c1cc(F)c(F)c(F)c1F      melting point    118 to 119 °C

Lookup: Which melting point value is on record for `Cc1ccc(N2CCOCC2)c(N=C2NCCN2CCO)c1` ?
Found: 135 to 136 °C

Lookup: Can you share its melting point? I mean this compound: `CC(C)Cn1cnc2c(N)nc3ccc(-c4ccsc4)cc3c21`
Found: 235 to 236 °C

Lookup: Give the measured melting point of `CC(=O)c1cc(Cl)c(N)c(I)c1F` .
Found: 117 to 119 °C

Lookup: Return reported melting point; argument: COc1ccc(-c2ccc(-c3cc(NC(Cc4ccccc4)C(=O)O)ncn3)cc2)cc1 (stereo not given)
Found: 123 to 125 °C

Lookup: Query: melting point; subject: COc1cc[nH]c1C=C1C(=O)Nc2cccc(C#CC(O)c3sccc3OC)c21 (racemic)
Found: 213 to 216 °C

---

melting point overview

> print(dat)
                                   compound  reported.result
1           CCN1C(=O)CC(C)(C)c2ccc(C#N)cc21    120 to 121 °C
2          CCCOc1ccc(SCCSc2ccc(OCCC)cc2)cc1    111 to 112 °C
3               CC(=O)Oc1c(C)c(C)nc2ccccc12      93 to 94 °C
4  CCN1C(=O)C(C)(C)C(=O)N(C)c2cc(CN(CCn3ccc4sccc4c3=O)Cc3cnccc3C)ccc21    145 to 147 °C
5  COc1ccc(S(=O)(=O)N2C(=O)[C@@](c3ccccc3OC)(N3C[C@H](OC(N)=O)C[C@H]3C(=O)N(C)C)c3cc(Cl)ccc32)c(OC)c1    115 to 125 °C

Lookup: Report melting point for O=[N+]([O-])c1ccc(C2OCCc3cc4c(cc32)OCO4)cc1 (stereo not drawn) please.
Found: 149 to 150 °C

Lookup: Give the measured melting point of `COc1ccc(C(=O)Cc2ccc(OC)c(F)c2)cc1` .
Found: 117 to 118 °C

Lookup: Can you look up the measured melting point of `CN(C(=N)Nc1cccc2ccccc12)c1cccc2ccccc12` for me?
Found: 249 to 250 °C
